Would you mind telling me the reported Growth % Average of each entry?
Test system: nine NSCLC lines
Assay Info: NCI-60 one-dose assay, average
Format: cell-based, human
Condition Context: average over the NSCLC lines tested; single dose 10 μM
Answers are plain numbers, in %.

# Smiles Text, Assay Value
records = [
    ("Cc1n(Cc2ccc3ccccc3c2)cc[n+]1Cc1ccc2ccccc2c1.[Br-]", 21.19),
    ("CCCc1n(Cc2ccc3ccccc3c2)cc[n+]1Cc1ccc2ccccc2c1.[Br-]", 2.33),
    ("CCCCc1n(Cc2ccc3ccccc3c2)cc[n+]1Cc1ccc2ccccc2c1.[Br-]", "−1.36"),
]

Here's the next entry for you.
INPUT: Please report the recorded Growth % Average for CCc1n(Cc2ccc3ccccc3c2)cc[n+]1Cc1ccc2ccccc2c1.[Br-] .
OUTPUT: 4.18

----------
Assay Info: Solubility in water, water/DMSO and 2-HPβCD solutions
Format: physicochemical
Condition Context: final 1% DMSO in water
Measurement Name: behaviour on addition of water to the DMSO solution

Some entries whose results are on file:
# Smiles Text, Assay Value
data = [
    ("CCc1n(Cc2ccc3ccccc3c2)cc[n+]1Cc1ccc2ccccc2c1.[Br-]", "remained soluble"),
    ("CC(C)c1n(Cc2ccc3ccccc3c2)cc[n+]1Cc1ccc2ccccc2c1.[Br-]", "remained soluble"),
    ("Cc1n(Cc2ccc3ccccc3c2)cc[n+]1Cc1ccc2ccccc2c1.[Br-]", "slight precipitation"),
    ("CCCc1n(Cc2ccc3ccccc3c2)cc[n+]1Cc1ccc2ccccc2c1.[Br-]", "remained soluble"),
]

Here's the next entry for you.
INPUT: Please report the recorded behaviour on addition of water to the DMSO solution for CCCCc1n(Cc2ccc3ccccc3c2)cc[n+]1Cc1ccc2ccccc2c1.[Br-] .
OUTPUT: slight precipitation
